Each item that follows carries a reported pIC50.
- Assayed target: human Gastric Inhibitory Peptide Receptor (human) (UniProt P48546)
- Sequence (P48546 22-466 limits assumed): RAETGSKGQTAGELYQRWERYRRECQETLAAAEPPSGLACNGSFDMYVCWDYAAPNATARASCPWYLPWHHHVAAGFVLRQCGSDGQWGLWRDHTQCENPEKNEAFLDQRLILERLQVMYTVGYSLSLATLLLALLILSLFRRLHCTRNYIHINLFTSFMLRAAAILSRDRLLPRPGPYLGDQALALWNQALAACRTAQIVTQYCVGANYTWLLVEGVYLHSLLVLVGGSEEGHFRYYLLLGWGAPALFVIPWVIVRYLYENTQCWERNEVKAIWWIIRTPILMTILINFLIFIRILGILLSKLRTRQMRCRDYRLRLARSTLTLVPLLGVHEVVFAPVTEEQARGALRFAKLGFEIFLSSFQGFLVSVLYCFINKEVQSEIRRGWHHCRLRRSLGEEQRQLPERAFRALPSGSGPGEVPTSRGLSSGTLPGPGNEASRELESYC
- Assay remarks: FACS competition with GIP-057 on CHO-K1-hGIPR cells; pIC50 category A: >8.0
*1 amine or outer side, *2 acyl side, *3 side chain or, on linkers, in order; H or OH if unused. Bridges are numbered along the chain shown (N, C = ends). Where no end group is shown, it is not given here. Side-chain parts run from the residue outwards. [ ]: non-standard residue; d: D form. The star is where a group is joined. NH(1-deoxy-D-glucityl) = OC[C@@H](O)[C@@H](O)[C@H](O)[C@@H](O)CN*; (dE)(AGLU) = D-glutamic acid bearing 1-amino-1-deoxy-D-glucitol; dE(AGLU) = D-glutamic acid bearing 1-amino-1-deoxy-D-glucitol; Pro(trans-4-NH2) = O=C([C@@H]1C[C@@H](N[*:3])CN1[*:1])[*:2]; Trp(5-Cl) = N[C@@H](Cc1c[nH]c2ccc(Cl)cc12)C(=O)O; Pyridine(2,6-diCH2) = c1cc(C[*:1])nc(C[*:2])c1; APAc = 4-amino-1-carboxymethylpiperidine; Glutaryl = O=C(CCCC(=O)[*:2])[*:1]; AGLU = 1-amino-1-deoxy-D-glucitol; Api = NC1(C(=O)O)CCNCC1

Report pIC50 for {AGLU-Glutaryl-APAc}-DW[Trp(5-Cl)][Pro(trans-4-NH2)]E[dL]C[Api]LIC-{APAc-dE(AGLU)-NH2} (linker 7-11 via Pyridine(2,6-diCH2); not fully specified (residue 8)) please.
> 8 pic50

Could you now consider this next binder?
State the recorded pIC50 for this entry: DW[Trp(5-Cl)][Pro(trans-4-NH2)]E[dL]C[Api]([Glutaryl-NH(1-deoxy-D-glucityl)])LIC-{APAc-(dE)(AGLU)-NH2} (linker 7-11 via Pyridine(2,6-diCH2); not fully specified (N-terminus); printed as DOTA-O2Oc-glu(AGLU)-Asp-Trp-5Clw-Tap-Glu-leu-[Cys(2Lut)-Apc(AGLU-Glutar)-Leu-Ile-Cys]-APAc-glu(AGLU)-NH2)
> 8 pic50
